assay: NCI Yeast Anticancer Drug Screen. Data for the bub3 strain (AID 167); conditions: S. cerevisiae bub3 mutant strain, at 50.0 µM, hits give high values
About 79,000 compounds went through this panel and 15% of them were active in at least one assay; those are over-represented in the sample as a whole. Where a SMILES comes first, the peptide text is derived from it. The star is where a group is joined. Boc = CC(C)(C)OC(=O)*; OBn = c1ccc(CO*)cc1
measurement.name: growth inhibition (%)

molecule	units.of.measure	reported.measurement
CC(=O)O[C@@H]1[C@@H](C)[C@]2(CC(c3ccoc3)OC2O)C2CCC3O[C@]3(C)[C@]2(C)[C@@H]1OC(C)=O (stereo partly drawn)	%	-39.5
O=C(Nc1ccccc1)OC1C=CC2CCC1C2 (stereo not drawn)	%	17.8
CC(=O)N=Cc1c(O)[nH]c2ccccc12	%	8.3
CN(C)CCC(c1ccccc1)c1ccccc1	%	14.7
O=C(CCBr)OCCOc1ccccc1	%	4.95
O=C(Oc1c(Cl)cc(Cl)cc1C=Nc1ccc(Cl)cc1)c1ccccc1	%	58.2
C=CCN1C(=O)c2ccccc2S1(=O)=O	%	-3.15
C=CCNC(=O)N(CCC)CCCCC(NC(C)=O)C(=O)NCc1ccccc1 (stereo not drawn)	%	8.75
CN(c1ccccc1Cl)S(=O)(=O)c1ccc([N+](=O)[O-])cc1	%	26.4
CC(=O)CC1CCCCCC1	%	2.1
O=c1ccc(O)c[nH]1	%	2.8
Cc1cccc(C(C)C)c1NC(=O)/C(Cc1c([N+](=O)[O-])cccc1[N+](=O)[O-])=N/NC(=O)CC#N	%	-23.2
O=C(/C=C/c1ccc(O)cc1)c1ccc(Cl)cc1	%	20.4
CCCCCC(CN(C)C)C(=O)CC(SCC)c1ccccc1 (stereo not drawn)	%	18.6
C1CCN(CCC2CCCCN2)CC1 (stereo not drawn)	%	-37.8
CC[C@H](/C=C/[C@@H](C)[C@H]1CC[C@H]2[C@@H]3CC[C@@H]4CC(=O)CC[C@]4(C)[C@H]3CC[C@]12C)C(C)C	%	35.5
CN(C)Cc1cc(O)c(O)c(CN(C)C)c1	%	-40.2
CC(CCl)NS(=O)(=O)c1ccccc1 (stereo not drawn)	%	-7.5
c1ccc(C2CCCN2)cc1 (stereo not drawn)	%	-1.4
O=C(O)CC(Nc1ncccn1)C(=O)O (stereo not drawn)	%	-6.1
CC12CCC(C/C1=N\O)C2(C)CBr (stereo not drawn)	%	-2.3
CC1=C(C)CN(CCC(=O)O)C(C(N)=O)C1 (stereo not drawn)	%	18.5
COc1cccc(NC(=S)/C(=C(/[O-])c2ccc([N+](=O)[O-])cc2)[n+]2cccc3ccccc32)c1	%	28.2
COc1ccc2nc(C)c3c(c2c1)C(=O)N(CCC[N+]1([O-])CC[N+]([O-])(CCCN2C(=O)c4c(c5cc(OC)ccc5[n+]([O-])c4C)C2=O)CC1)C3=O (stereo not drawn)	%	2.3
N#Cc1cc(Cl)ccc1N=Cc1c(Cl)cccc1Cl	%	-6.55
CCOC(=O)c1nc2ccccc2nc1NCc1ccc(OC)cc1	%	-22.4
CC(O)CNC(=O)Nc1ccccc1 (stereo not drawn)	%	3.95
O=S(=O)(Cl)c1ccc(I)cc1	%	-2.2
CCOc1ccccc1/C=C1\CCc2ccccc2C1=O	%	49.9
CC(NC(=O)C(NC(=O)OC(C)(C)C)C(C)C)C(=O)N1CCCC1C(=O)NCC(=O)NC(C(=O)NCC(=O)OCc1ccccc1)C(C)C (stereo not drawn) (Boc-VAPGVG-OBn; configuration not given here)	%	-18.9
NC(Cc1ccccc1)(C(=O)O)C(=O)O	%	-22.1
C=CCCC(=O)CC(=O)OCC	%	-8
CCSC(=S)S(=O)(=O)c1ccc(C)cc1	%	84.2
C/C(CC(O)(C(F)(F)F)C(F)(F)F)=N\O	%	-19.5
O=[N+]([O-])c1ccc(-c2csc3nc(-c4ccccc4)nn23)cc1	%	-28.2
CC(C)CN1CC(C)C(=O)NC1=O (stereo not drawn)	%	1
CC(C)(CCCCC(C)(C)NC1=NCCO1)NC1=NCCO1	%	-4.45
CN(C)CCN1CC2C3CCCCC3=C3CCCCC3C2C1 (stereo not drawn)	%	23.8
OCc1nc2ccccc2[nH]1	%	14.1
NCCCNC/C=C/CNCCCN	%	-0.8
C/C=C(\C)C(=O)OCC1CC[N+](C)([O-])C1 (stereo not drawn)	%	5
COC(=O)C1CCC(C(=O)OC)CC1 (stereo not drawn)	%	-9
CCC12CCCN(Cc3ccccc3)C1c1c([nH]c3ccccc13)C(C(=O)OC)C2 (stereo not drawn)	%	-0.25
Cc1nc2ccccc2c(=O)n1NC(=O)c1ccccn1	%	-5.55
Cc1cc(C(C)C)cc(C(C)C)c1	%	-0.85
Fc1ccc(N2C(c3ccccc3)=N[C@@H](N3CCOCC3)[C@@H]2N2CCOCC2)cc1	%	-2.2
O=C1c2ccccc2C(=O)N1OCc1csc(-c2ccccc2)n1	%	0.95
CS(=O)(=O)Nc1cccc(C(=O)NN)c1	%	-11.7

---

experiment: NCI Yeast Anticancer Drug Screen. Data for the mec2-1 strain (AID 157); details: S. cerevisiae mec2-1 strain, at 50.0 µM, hits give high values
This is part of a sample that, as a whole, favours compounds with a hit. Of some 79,000 tested, about 15% had one in any assay.

compound	units.of.measure	growth inhibition
CCCCC[N+]1([O-])CCOCC1	%	-4.1
Cc1ccc(C)c2c1CCc1cc3ccccc3nc1-2	%	-7.5
CCOC(=O)C(C)(C(C)=O)c1nc(=S)[nH]c(=S)[nH]1 (centres undefined)	%	7.55
CCOC(=O)NC(=O)c1cn(CC(=O)NCC(=O)NCC(=O)N2CCN(CCn3c(C)nc(C(N)=O)c3N)CC2)c(=O)[nH]c1=O	%	8.9
CNC(=O)OCc1c(COC(=O)NC)c(-c2ccc(S(=O)(=O)c3ccccc3)cc2)n(C)c1C	%	-3.85
CCOc1c(C(=O)O)cnc2ccccc12	%	19.5
NC(=O)c1ccc2c(c1)-c1nc-2nc2[n-]c(nc3nc(nc4[n-]c(n1)c1ccc(C(N)=O)cc41)-c1ccc(C(N)=O)cc1-3)c1ccc(C(N)=O)cc21.[Co+2]	%	4.65
CC(=O)N=C1CSc2ccccc2N1C	%	-7.2
COCn1cnc2c(=O)n(-c3ccc(OC)cc3)c(=S)n(-c3ccc(OC)cc3)c21	%	-13.7
Cc1ccc(C2(C(=O)O)CC2)cc1	%	-25.7
CCCCCCn1c(=O)cc2n(c1=O)CCC2	%	11.3
NC(N)=N/N=C(\c1nc2ccc([N+](=O)[O-])cc2[nH]c1=O)C(O)c1ccc([N+](=O)[O-])cc1 (centres undefined)	%	-24.9
CC(C)CCCC(C)C1CCC2C3CC=C4CC(C(=O)O)CCC4C3CCC12C (centres undefined)	%	21.6
CSc1ccccc1C1CCCCCC1O (centres undefined)	%	12.8
O=C(CCCn1ccnc1[N+](=O)[O-])NCCn1cncc1[N+](=O)[O-]	%	-8.2
COC(=O)C(C)S(=O)(=O)O (centres undefined)	%	-2.5
Cc1nn(CO)c(C)c1Br	%	-18.4
OCC1(CO)CCCO1	%	-21.9
C(=C\c1ccc2ccc(/C=C/c3ccccc3)cc2c1)/c1ccccc1	%	14.7
COC(=O)C1C(C(=O)OC)C(C(=O)OC)C1C(=O)OC (centres undefined)	%	-0.35
COc1ccc2ccc3nonc3c2c1	%	4.7
CCOC(=O)N1CN(C(=O)OCC)CN(C(=O)OCC)C1	%	19.5
CCOC(=O)c1nc2c(C)nc(N)nc2[nH]c1=O	%	-1.2
C1CN(SSN2CCSCC2)CCS1	%	-18.5

---

assay: NCI Yeast Anticancer Drug Screen. Data for the sgs1 mgt1 strain (AID 161);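 note: 0% = growth of cultures given vehicle only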; settings: S. cerevisiae sgs1 mgt1 strain, at 50.0 µM, hits give high values
About 79,000 compounds went through this panel and 15% of them were active in at least one assay; those are over-represented in the sample as a whole.

compound	growth inhibition (%)
O=c1cc(O)cc2n1CCC2	-11.4
C(=N\c1nnc2ccccn12)/c1ccccc1	-21.7
CNC(=O)NC(C)(C)CCCCC(C)(C)NC(=O)NC	28.3
CCCCCCCCCCCCCCCCS(=O)(=O)N/N=C(\c1ccc(C(C)C)cc1)N1CCOCC1	12.7
CCCCCOC(=O)CC(c1ccccc1)N1CCCCC1 (configuration not stated)	19.1
CC(C)(N)CNCCO	-8.9
CC(C)(c1ccc(O)c(Cl)c1)c1cc(Cl)c(O)c(S(=O)(=O)O)c1	27.2

---

test: NCI Yeast Anticancer Drug Screen. Data for the rad50 strain (AID 155);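 note: 0% = growth of vehicle-only cultures of the same strain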; conditions: S. cerevisiae rad50 strain growth inhibition; at 50.0 µM
Compounds without any hit were thinned out: in the full panel of roughly 79,000, 15% have a hit. The source made the active and inactive calls. No stated cut-off is given here; in the data, active means growth inhibition above about 70%; inactive means the rest.
Possible outcomes: active, inactive

compound	label.value
C#C/C=C/CC(OC(C)=O)C1C/C=C\CC(Br)C(CC)O1 (stereo not given)	inactive
[C-]#[N+]C(=C\c1ccc(O)cc1)/C(=C/c1ccc(O)cc1)[N+]#[C-]	active
NNC(=O)c1ccc2ccccc2c1O	inactive
O=C(O)c1cc(O)c(C(=O)O)cc1O	inactive
C[N+](C)(C)c1ccc(C(=O)[O-])cc1	inactive
Cc1nn(-c2ccccc2)c2c1N=C(C(=O)O)CC(c1ccccc1)=N2	inactive
O=C(COc1cccc(C(=O)O)c1)Nc1ccccc1	inactive
Nc1nc(Cc2ccccc2)c(CCCNc2ccccc2)c(=O)[nH]1	inactive
O=C(O)CN1C(=O)/C(=C\c2ccc3ccccc3n2)SC1=S	inactive
CC([O-])=C1C(=O)c2ccccc2C1=O.CC([O-])=C1C(=O)c2ccccc2C1=O.CC[O-].CC[O-].[Ti+4]	inactive
CC1=CC(C)S(=O)(=O)C1 (stereo not given)	inactive
CN(C)CCCOc1nc2c(c(=O)n(C)c(=O)n2C)n1C (tested in a mixture with another compound)	inactive
Cc1cc(C)c(-c2no/c(=N\S(=O)(=O)c3ccc(Cl)cc3)o2)c(C)c1	inactive
CC(=O)OC(C)C(=O)OCCOc1ccccc1 (stereo not given)	inactive
COc1ccc(/C(O)=C/c2nc3cccc([N+](=O)[O-])c3[nH]c2=O)cc1	inactive
N#CCc1nc(-c2ccccc2)n[nH]1	inactive
COc1cc2c(cc1OC)C1c3ccccc3CCCN1CC2 (stereo not given)	inactive
O=c1[nH]c(=S)c2ncn(C3OC(CO)C(O)C3O)c2[nH]1 (stereo not given)	inactive
COc1ccc(C(=O)CC2=Nc3nnc(CCCCCCCc4nnc5n4C(=O)C(CC(=O)c4ccc(OC)cc4)=N5)n3C2=O)cc1	inactive
O=C1C2C(Cl)C(Cl)C(Cl)C(Cl)C2C(=O)N1NC1CCC([N+](=O)[O-])CC1[N+](=O)[O-] (stereo not given)	inactive
COc1ccc(C2CC(=O)N(c3nccc(C)n3)C(=O)C2)cc1	inactive
COc1ccc(C(C#N)Cc2ccccc2)c([N+](=O)[O-])c1 (stereo not given)	inactive
C[N+](C)(C)c1cc(Br)c(O)c(Br)c1	inactive
COc1ccc(-n2c(N)c(C#N)c(C#N)c2-c2cccc([N+](=O)[O-])c2)cc1	inactive
CC(C)CC(NC(=O)c1cc([N+](=O)[O-])cc([N+](=O)[O-])c1)C(=O)O (stereo not given)	inactive
O=C(C[n+]1ccncc1)c1ccccc1	inactive
O=C(CCCCCCCCC(=O)NO)NO	inactive
COc1ccc(NC(=O)CC/C(CC(=O)c2ccco2)=N/Nc2ccc([N+](=O)[O-])cc2[N+](=O)[O-])cc1	inactive
CC(C)C(=O)NCc1ccccc1Sc1ccccc1CNC(=O)C(C)C	inactive
CCCCCc1c(Cl)nc(Cl)nc1Cl	inactive
COC(=O)C(C#N)(CCC(=O)c1ccccc1)CCC(=O)c1ccccc1	inactive
O=C(c1ccc(Cl)c(Cl)c1)C(CS(=O)(=O)O)CS(=O)(=O)O (tested in a mixture with another compound)	inactive
CC(C)(C)N=Cc1ccccc1[O-].CC(C)(C)N=Cc1ccccc1[O-].[Co+2]	inactive
CN(C)c1nc(=O)c2c(ccc3ccccc32)o1	inactive
CCN(CC)CCCC(C)Nc1nccc(/C=C/c2ccc(Cl)cc2)n1 (stereo not given)	inactive
CC(C)(C)C(=O)C1C(=O)c2ccccc2C1=O	inactive
Cn1cnc([N+](=O)[O-])c1Sc1ccncc1S(N)(=O)=O	inactive
COc1c(OC(C)=O)c(OC(C)=O)cc2c1-c1ccc(OC)c(=O)cc1C(NC(C)=O)CC2 (stereo not given)	inactive
CCOC(=O)C(C)(C)OC(C)=O	inactive
O=C1c2ccccc2-c2cccc3ccc(-c4ccccc4)c1c23	inactive
Cc1cn(C2CC(O)C(CO)C2C)c(=O)[nH]c1=O (stereo not given)	inactive
CCCCOC(=O)NC(C)=O	inactive
CC(=O)c1ccc(C(C)=O)c(OCc2ccccc2)c1	inactive
N#Cc1c(-c2ccccc2)cc(-c2ccc(N)cc2)[nH]c1=O	inactive
O=C1C=CC2(CC=CCC2)CC1 (stereo not given)	inactive
